# subject_of_test: human TLR8 (Homo sapiens (Human))
# Sequence (Q9NR97 27-1041): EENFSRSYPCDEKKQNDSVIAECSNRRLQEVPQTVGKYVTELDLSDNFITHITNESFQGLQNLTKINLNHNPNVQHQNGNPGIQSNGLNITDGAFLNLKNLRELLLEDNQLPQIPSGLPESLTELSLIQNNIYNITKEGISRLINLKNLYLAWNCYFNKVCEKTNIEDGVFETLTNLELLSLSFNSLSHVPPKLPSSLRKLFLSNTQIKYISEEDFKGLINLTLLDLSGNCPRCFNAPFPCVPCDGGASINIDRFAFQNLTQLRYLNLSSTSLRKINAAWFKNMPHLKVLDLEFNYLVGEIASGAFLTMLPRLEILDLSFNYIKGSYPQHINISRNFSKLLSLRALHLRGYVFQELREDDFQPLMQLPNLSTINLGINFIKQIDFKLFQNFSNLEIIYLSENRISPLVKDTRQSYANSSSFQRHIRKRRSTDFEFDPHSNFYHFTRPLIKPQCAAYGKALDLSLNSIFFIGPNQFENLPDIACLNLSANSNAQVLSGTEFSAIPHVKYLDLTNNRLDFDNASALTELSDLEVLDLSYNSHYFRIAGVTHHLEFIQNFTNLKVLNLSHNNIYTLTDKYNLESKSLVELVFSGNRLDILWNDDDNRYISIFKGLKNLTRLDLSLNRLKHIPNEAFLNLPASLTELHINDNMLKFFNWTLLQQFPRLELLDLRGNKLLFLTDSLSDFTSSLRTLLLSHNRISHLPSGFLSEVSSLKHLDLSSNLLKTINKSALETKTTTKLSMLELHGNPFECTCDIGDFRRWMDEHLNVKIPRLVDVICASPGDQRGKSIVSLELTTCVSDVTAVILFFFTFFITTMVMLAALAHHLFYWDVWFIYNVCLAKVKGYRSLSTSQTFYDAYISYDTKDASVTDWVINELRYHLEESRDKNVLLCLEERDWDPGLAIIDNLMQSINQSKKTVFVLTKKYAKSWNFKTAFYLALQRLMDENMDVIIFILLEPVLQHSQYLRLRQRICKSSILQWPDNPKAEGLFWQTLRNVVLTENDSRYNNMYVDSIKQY
# method_notes: TLR8 inhibition reporter assay (HEK-Blue cells, SEAP reporter, R848 stimulation);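 further: compounds tested from 0.05 nM to 50 µM, 22 h at 37 °C, SEAP measured with HEK-Blue Detection, inhibition relative to agonist plus DMSO versus a known inhibitor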
# cond: read-out: TLR8 IC50, HEK-Blue cells overexpressing human TLR8, R848 15.9 μM
Assign pIC50 to each entry below.
Just the number, please; pIC50 means minus log10 of the concentration in mol/L.

Request: Respond only with pIC50 recorded for Cc1cc(-c2[nH]c3ccc(C4CCN(CC(=O)N5CCS(=O)(=O)CC5)CC4)cc3c2C(C)C)cc(C)n1 [Example 281]
Result: 8.70

Request: Respond only with pIC50 recorded for Cc1cc(-c2[nH]c3ccc(C4CCN(C(=O)CNC(CO)CC(C)C)CC4)cc3c2C(C)C)cc(C)n1 (stereo not drawn) [Example 382]
Result: 7.36

Request: Respond only with pIC50 recorded for Cc1cc(-c2[nH]c3ccc(C4CCN(CC(=O)N(C)CCCO)CC4)cc3c2C(C)C)cc(C)n1 [Example 288]
Result: 7.46
